B1: Intersectin-1, residues 1156 to 1213; numbered along this chain, Q15811 (parent)
chain: AVCQVIGMYDYTAQNDDELAFNKGQIINVLNKEDPDWWKGEVNGQVGLFPSNYVKLTT

Variants of: B1
Assay: abundance fitness (aPCA) (normalised: wild type 0, dead -1); higher = more abundant; growth selection in yeast, the domain comes from the species named
Details: Homo sapiens
Please mark t if the recorded abundance fitness is equal to or greater than -0.8, and f if it falls below.

Would you say AVCQVIGMYDYTAQNDDELAFNKGQIINVLNKEDPDWVKGEVNGQVGLFPSNYVKLTT [W38V] shows abundance fitness at minimum -0.8?
f

Would you say AVCQVIGMYDYTAQNDDELAFKKGQIINVLNKEDPDWWKGEVNGQVGLFPSNYVKLTT [N22K] shows abundance fitness at minimum -0.8?
t

Would you say AVCQVIGMYDYTAQNDDELAFNKGQIIIVLNKEDPDWWKGEVNGQVGLFPSNYVKLTT [N28I] shows abundance fitness at minimum -0.8?
t

Would you say AVCQVIGMYDYTAQNDDELQFNKGQIINVLNKEDPDWWKGEVNGQVGLFPSNYVKLTT [A20Q] shows abundance fitness at minimum -0.8?
t

Would you say AVCQNIGMYDYTAQNDDELAFNKGQIINVLNKEDPDWWKGEVNGQVGLFPSNYVKLTT [V5N] shows abundance fitness at minimum -0.8?
f

Would you say AVCQVIGMYDYTAQNDDELAGNKGQIINVLNKEDPDWWKGEVNGQVGLFPSNYVKLTT [F21G] shows abundance fitness at minimum -0.8?
t

Would you say AVCQVSGMYDYTAQNDDELAFNKGQIINVLNKEDPDWWKGEVNGQVGLFPSNYVKLTT [I6S] shows abundance fitness at minimum -0.8?
t

Would you say AVCQVIGMYDYTAQNDDELAFNKGQIINVLNKEDPDWWKGEVNGQVGLFPSNYQKLTT [V54Q] shows abundance fitness at minimum -0.8?
f

Would you say AVCQVIMMYDYTAQNDDELAFNKGQIINVLNKEDPDWWKGEVNGQVGLFPSNYVKLTT [G7M] shows abundance fitness at minimum -0.8?
t

Would you say AVCQVIGMYDYTAQNDDELAFNKGQIINVLNKEDPDWFKGEVNGQVGLFPSNYVKLTT [W38F] shows abundance fitness at minimum -0.8?
f

Would you say AVCQVIGMYDYTAQNDDELAFNKGQIINVLNKEDPDWWKGEVWGQVGLFPSNYVKLTT [N43W] shows abundance fitness at minimum -0.8?
f

Would you say AVCQVIGMYDYTAGNDDELAFNKGQIINVLNKEDPDWWKGEVNGQVGLFPSNYVKLTT [Q14G] shows abundance fitness at minimum -0.8?
t

Would you say AVCQVIGMYDYTAQNDDELAVNKGQIINVLNKEDPDWWKGEVNGQVGLFPSNYVKLTT [F21V] shows abundance fitness at minimum -0.8?
t

Would you say AVCQVIGMYDYTAQNDDELAFNKGQIINVLNKEDPDWWKGEVNGQVGLFPSNYVWLTT [K55W] shows abundance fitness at minimum -0.8?
t

Would you say AVCQVIGMYDYTAQNDDKLAFNKGQIINVLNKEDPDWWKGEVNGQVGLFPSNYVKLTT [E18K] shows abundance fitness at minimum -0.8?
t

Would you say AVCQVIGMYDYTAQNDDELAFNKGQIINVLNKEDPDWWKGEVNMQVGLFPSNYVKLTT [G44M] shows abundance fitness at minimum -0.8?
f

Would you say AVCQVIGMYDYTAQNDDELALNKGQIINVLNKEDPDWWKGEVNGQVGLFPSNYVKLTT [F21L] shows abundance fitness at minimum -0.8?
t

Would you say AVCQVIGMYDYTAQNDDELAFNKGQIINVLWKEDPDWWKGEVNGQVGLFPSNYVKLTT [N31W] shows abundance fitness at minimum -0.8?
t

Would you say AVCQQIGMYDYTAQNDDELAFNKGQIINVLNKEDPDWWKGEVNGQVGLFPSNYVKLTT [V5Q] shows abundance fitness at minimum -0.8?
t

Would you say AVHQVIGMYDYTAQNDDELAFNKGQIINVLNKEDPDWWKGEVNGQVGLFPSNYVKLTT [C3H] shows abundance fitness at minimum -0.8?
t

Would you say AVCQVIGMYDYTAQNDDELAFNKGQIINVLNKEDPDTWKGEVNGQVGLFPSNYVKLTT [W37T] shows abundance fitness at minimum -0.8?
t

Would you say AVCQVIGMYDYTAQNDDELAFNKGQIINVLNKEDPDWWKGEVNGQVGLFPSTYVKLTT [N52T] shows abundance fitness at minimum -0.8?
t

Taken from the Human Domainome abundance scans (Beltran et al. 2025).
